# tgt: T1, APG293 (human CD95L-T4) (human)
# T1 chain: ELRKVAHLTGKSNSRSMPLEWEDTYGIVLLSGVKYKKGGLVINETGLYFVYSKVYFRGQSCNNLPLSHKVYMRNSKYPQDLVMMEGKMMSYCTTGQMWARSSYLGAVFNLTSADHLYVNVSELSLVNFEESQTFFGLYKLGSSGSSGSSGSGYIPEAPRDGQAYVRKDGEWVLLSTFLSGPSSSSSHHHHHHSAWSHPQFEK
# methodSummary: cell-based or functional assay
Measured EC50, Assay 4: antagonism of CD95L-T4-induced apoptosis on Jurkat A3 cells, listed per entry.

binder | result
scFv-minibody SEQ ID 48 (scFv) scFv: QSLEESGGDLVKPGGTLTLTCTTSGFSFSDHYWMCWVRQAPGKGLEWIACIYTADSDSYYASWAKGRFTISKTSSTTVTLQMTSLTAADTATYFCARNGAYAGGPYGDLWGPGTLVTVSGGGSGGGSGGGSGGGSDIVMTQTPSSVEAAVGGTVTIKCQASQSIRTSLVWYQQKPGQPPKLLIYKASDLPSGVPSRFKGSGSGTQFTLTISDLESADAATYYCQSYDFRDTINNGHSFGGGTEVVVKGSGSSGQPREPQVYTLPPSREEMTKNQVSLTCLVKGFYPSDIAVEWESQGSPENNYKTTPPVLDSDGSFFLYSKLTVDKSRWQQGNVFSCSVMHEALHNHYTQKSLSLSPGSSSSSSAWSHPQFEK | 0.0908 µg/mL

Okay, now this binder:
*Q* Specify measured EC50, Assay 4: antagonism of CD95L-T4-induced apoptosis on Jurkat A3 cells for scFv-minibody SEQ ID 49 (scFv) scFv: EVQLVESGGGLVQPGGSLRLSCAASGFSFSDHYWMCWVRQAPGKGLEWVACIYTADSDSYYASWAKGRFTISKDSSKNTLYLQMNSLRAEDTAVYYCARNGAYAGGPYGDLWGQGTLVTVSGGGSGGGSGGGSGGGSDIQMTQSPSSLSASVGDRVTITCKASQSIRTSLVWYQQKPGKAPKLLIYKASDLPSGVPSRFSGSGSGTDFTLTISSLQPEDFATYYCQSYDFRDTINNGHSFGQGTKVEIKGSGSSGQPREPQVYTLPPSREEMTKNQVSLTCLVKGFYPSDIAVEWESQGSPENNYKTTPPVLDSDGSFFLYSKLTVDKSRWQQGNVFSCSVMHEALHNHYTQKSLSLSPGSSSSSSAWSHPQFEK .
*A* 0.144 µg/mL
